# System: MS2 coat protein
# experimental_protocol: apparent KD of MS2 coat protein; designed switch direction (-1 OFF switch, 1 ON switch): -1; higher = weaker reporter binding
# measurement_parameters: input ligand: microRNA oligo, concentration not stated
experimental_endpoint: apparent KD of MS2 coat protein (nM)
// return numeric value only (unit: nM, not printed)

Before answering, review these 3 worked examples.
AUUGUAUAGGAAGGAUAUAGAAUAUUAUUUUAACAUGAGGAUCACCCAUGUAACCUUAUGUGUAGCUAGAAGGUCCAUUUAUUA [Title] (Eterna round: R96, puzzle: Exclusion NG 2) | 90.2
UUUUUAAAUGAAGGAUAUACUUAACAUGAGGAUCACCCAUGUGGUGUUGUGAGUGAGUGAGUUUAGUAGAAGGUCAAUGAUUUU [JMF's solution 65] (Eterna round: R96, puzzle: Exclusion NG 2) | 196
CUGUUUUUCGCAGGAUAUGCUCCUCCUUUAUUAGCAGAAGGGCGUUAAACAUGAGGAUCACCCAUGUAUGGUAAUGACAUUUUC [JR_ExcNG1_Sub062] (Eterna round: R96, puzzle: Exclusion NG 1) | 29.8

Entry CACCGUUACAGAGGAUAUCUUACAUGAGGAUCACCCAUGUAAUAAAUGAGAAUUUCGGAUGUAUGAGAGAAGGCUGGAAUCGGC [Ostricism 38 - Jieux - Exclusion NG 2] (Eterna round: R96, puzzle: Exclusion NG 2) , system MS2 coat protein: what apparent KD of MS2 coat protein was measured?
16.3

Another sequence to check: AGCCAAGCAGGAUAUGCCCGGGAUAACAUGAGGAUCACCCAUGUGACCGAUUGAUGUCCUGCAGAAGGGCUUGGGA [Erxesoan] (Eterna round: R96, puzzle: Exclusion 5)
11.4

What would you report for GCAGCAUAUGUAGGAUAUCUGCACGUGUAGUGCAGAGAAGGACAUGAGGAUCACCCAUGUAAUUAAGAUCAAUUAUUAAGCUGC [ENG1/4-A3] (Eterna round: R96, puzzle: Exclusion NG 1) ?
17.3

Follow-up item: UUAGAUUAUUGAGGAUAUGGAUAUUUUUAUUAACCAGAAGGCAAACUCAACAUGAGGAUCACCCAUGUAUAAAGGGUAUUAGUU [JR_ExcNG1_Sub098] (Eterna round: R96, puzzle: Exclusion NG 1)
71.2

Same lookup for GUGUGGCCUGUAGGAUAUGGUUCCGUUUCGGUUCCAGAAGGACACGAGGAUACAUGAGGAUCACCCAUGUGCUCGUCACUGUGC [salish99_ExNG1_r04_404] (Eterna round: R96, puzzle: Exclusion NG 1) , please.
11.5

Now give it for ACAUGAGGAUCACCCAUGUUUGUUGGGUACUCUUUUUACAGCAAGGAUAUGCAUGUUUUUUUUACGCAGAAGGUGCUGGACGUC [JR_ExcNG3_Sub068] (Eterna round: R96, puzzle: Exclusion NG 3) too.
163
